target: GlcNAc(b1-3)Gal; test: glycan array binding signal (z-score within array); higher = stronger binding; settings: glycan notation: IUPAC condensed, linker removed
This is one part of a sample in which the strongest signals are shown more often than they occur.
OBSERVABLE: glycan array binding signal (z-score)
Keep the answer to the number alone.

Below, 5 binders whose answers are already recorded.
The binder EULS2 M2 (Oryza sativa) (protein) MVYCRANPNYAMTARNGAVVLAPANPKDEYQHWIKDMRWSTSIKDEEGYPAFALVNKATGQAIKHSLGQSHPVRLVPYNPEVMDESVLWTESRDVGNGFRCIRMVNNIYLNFDAFHGDKYHGGVRDGTDIVLWKLCEGDSQRWKIQPYYILEQKLISEEDLNSAVDHHHHHH showed glycan array binding signal (z-score) equal to -0.404

The binder LEA (Lycopersicon esculentum) (protein) NEVFDVPMNETIGVESINASVGGYPRCGAQGDGGNCPSGMCCSVWGWCGKTYGYCAPQNCQKQCPAPYPEGRCGWQADGKSCPNGKCCSYGGWCGTTSDYCARQNCQKQCILPSPPPPPPPPPGFPRPECGLQKNGERCTKPGECCSIWGLCGATYKYCDPQHCQKQCSAPFPPGRCGWQADGRPCPTGQCCSFSGWCGTTSAHCTYPQCVSQCNDPRFPSSLNNRIQSFML showed glycan array binding signal (z-score) equal to -0.567

The binder PpFlo2 (Pichia pastoris) (protein) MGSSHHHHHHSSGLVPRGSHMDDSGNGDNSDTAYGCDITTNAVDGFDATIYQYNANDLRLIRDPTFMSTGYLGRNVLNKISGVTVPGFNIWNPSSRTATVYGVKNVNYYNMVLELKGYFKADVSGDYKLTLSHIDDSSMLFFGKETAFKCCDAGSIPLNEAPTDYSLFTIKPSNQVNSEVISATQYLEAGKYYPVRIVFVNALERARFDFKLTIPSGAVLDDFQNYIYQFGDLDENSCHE showed glycan array binding signal (z-score) equal to 1.09

The binder DCIR (Homo sapiens), Q9UMR7 (protein) MTSEITYAEVRFKNEFKSSGINTASSAASKERTAPHKSNTGFPKLLCASLLIFFLLLAISFFIAFVIFFQKYSQLLEKKTTKELVHTTLECVKKNMPVEETAWSCCPKNWKSFSSNCYFISTESASWQDSEKDCARMEAHLLVINTQEEQDFIFQNLQEESAYFVGLSDPEGQRHWQWVDQTPYNESSTFWHPREPSDPNERCVVLNFRKSPKRWGWNDVNCLGPQRSVCEMMKIHL showed glycan array binding signal (z-score) equal to -0.245

The binder TbCVNHOb (Tuber borchii) (protein) GSHIGPYMSFYASSEDVRTIEEGGRTWLVGRARRADGSWQDIKLDLDNIIGNRDGHLTWGEQNFTQSASDIRFNFEGGSNVPVLRAKLRNAAGGEQESDLNLGERLTNNNGDLVFN showed glycan array binding signal (z-score) equal to -0.16

More entries:
The binder Regenerating Gene I (Homo sapiens), P05451 (protein) MAQTSSYFMLISCLMFLSQSQGQEAQTELPQARISCPEGTNAYRSYCYYFNEDRETWVDADLYCQNMNSGNLVSVLTQAEGAFVASLIKESGTDDFNVWIGLHDPKKNRRWHWSSGSLVSYKSWGIGAPSSVNPGYCVSLTSSTGFQKWKDVPCEDKFSFVCKFKN showed glycan array binding signal (z-score) equal to -0.215

The binder SLLPI (Homo sapiens), Q8IXA5 (protein) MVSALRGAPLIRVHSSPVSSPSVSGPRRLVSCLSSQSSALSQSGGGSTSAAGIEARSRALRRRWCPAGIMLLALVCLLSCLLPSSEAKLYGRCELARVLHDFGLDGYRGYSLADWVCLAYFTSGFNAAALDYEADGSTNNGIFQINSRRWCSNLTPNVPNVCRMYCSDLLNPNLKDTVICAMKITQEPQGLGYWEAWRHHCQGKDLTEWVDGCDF showed glycan array binding signal (z-score) equal to 0.2

The binder rCnSL-A (Clitocybe nebularis) (protein) VNPNLPGPNDVFVGFRGTNNIVGAIYEKDGIKDTPLNNGADAEMGPGSYITDGLFTARIFASGSAGNNPGTTATVCKIYASGVQWRGAPKGYIPVAYFGNGPTAEQRRQTYLRTLGLPGTAIRFGNLNTNPGQGPTAPRQMVVPPGPLRSLLKASCFPAADTRLPQTLHYFEKRVDWNIITAADSQTWGH showed glycan array binding signal (z-score) equal to -0.22

The values you see were collected from the supplement of paper PMC8728848.
